# target-entity: TEC (human) (UniProt P42680)
# Sequence (P42680 whole entry, looked up): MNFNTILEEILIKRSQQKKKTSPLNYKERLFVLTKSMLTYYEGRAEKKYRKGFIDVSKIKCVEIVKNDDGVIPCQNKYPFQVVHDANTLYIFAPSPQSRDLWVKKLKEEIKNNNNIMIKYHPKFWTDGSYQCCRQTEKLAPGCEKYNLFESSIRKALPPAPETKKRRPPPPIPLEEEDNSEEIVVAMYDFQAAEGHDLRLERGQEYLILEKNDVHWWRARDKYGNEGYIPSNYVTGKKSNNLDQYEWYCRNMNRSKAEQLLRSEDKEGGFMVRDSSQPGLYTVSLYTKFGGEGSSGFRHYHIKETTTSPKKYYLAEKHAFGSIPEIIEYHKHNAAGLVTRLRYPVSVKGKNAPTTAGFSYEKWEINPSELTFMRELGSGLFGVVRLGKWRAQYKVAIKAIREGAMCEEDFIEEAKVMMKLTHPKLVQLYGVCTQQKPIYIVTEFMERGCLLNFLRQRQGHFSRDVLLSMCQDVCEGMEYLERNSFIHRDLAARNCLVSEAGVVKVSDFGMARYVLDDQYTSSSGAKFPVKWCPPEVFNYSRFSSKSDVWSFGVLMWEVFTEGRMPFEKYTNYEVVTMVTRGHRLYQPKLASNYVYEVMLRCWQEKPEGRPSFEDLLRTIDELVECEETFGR
# assay-notes: radiometric filter-binding kinase assay, Kinase HotSpot
# measurement-setup: compound 0.5 µM; ATP 10 µM
Measured residual activity of individual entries
Please reply with the bare figure in % and do not write the unit itself.

Consider the reported residual activity for these compounds:
* N#CC(C#N)=C(N)/C(C#N)=C/c1ccc(O)cc1 | 94.7
* CCOC(=O)c1c(C)[nH]c(/C=C2\C(=O)Nc3ccccc32)c1C | 141
* CCCC(=O)Oc1ccc2[nH]c(C(=O)c3cc4ccccc4[nH]3)cc2c1 | 97.8

What residual activity appears in the records for this compound with TEC (human) (UniProt P42680)? O=C1Nc2ccc(Cl)cc2/C1=C/c1cc(Cl)c(O)c(Cl)c1
109

====

# target-entity: ROCK2 (human)
# assay-notes: radiometric filter-binding kinase assay, Kinase HotSpot
# measurement-setup: compound 0.5 µM; ATP 10 µM
Measured residual activity of individual entries
Please reply with the bare figure in % and do not write the unit itself.

Consider the reported residual activity for these molecules:
- c1ccc(-c2n[nH]cc2-c2ccnc3ccccc23)nc1: 100
- Cc1ccc(NC2=CC(=O)c3sc(C)nc3C2=O)cc1: 85.1

Which residual activity reading was recorded for the molecule N#C/C(=C(/N)Sc1ccc(N)cc1)c1ccccc1C(F)(F)F ?
100

Which residual activity reading was recorded for the molecule CO[C@H]1CC2CC[C@@H](C)[C@@](O)(O2)C(=O)C(=O)N2CCCC[C@H]2C(=O)OC([C@H](C)C[C@@H]2CC[C@@H](O)[C@H](OC)C2)CC(=O)[C@H](C)/C=C(\C)[C@@H](O)[C@@H](OC)C(=O)[C@H](C)C[C@H](C)/C=C/C=C/C=C/1C (some centres undefined) ?
108

====

# target-entity: CSNK1E (human)
# assay-notes: radiometric filter-binding kinase assay, Kinase HotSpot
# measurement-setup: compound 0.5 µM; ATP 10 µM
Measured residual activity of individual entries
Please reply with the bare figure in % and do not write the unit itself.

Consider the reported residual activity for these compounds:
* c1ccc(-c2n[nH]cc2-c2ccnc3ccccc23)nc1 | 53.9
* CNC(=O)c1cc(Oc2ccc(NC(=O)Nc3ccc(Cl)c(C(F)(F)F)c3)cc2)ccn1 | 95.9
* Nc1cccc(-c2cc3c(Oc4cccc(O)c4)ncnc3[nH]2)c1 | 92.9
* COc1ccc2c(c[n+](C)c3c4cc5c(cc4ccc23)OCO5)c1OC | 90.7

Which residual activity reading was recorded for the compound O=S(=O)(c1cccc2cnccc12)N1CCCNCC1 ?
99.3

Which residual activity reading was recorded for the compound CNc1cc2c(Nc3cccc(Br)c3)ncnc2cn1 ?
84.8

Which residual activity reading was recorded for the compound Cc1ccc(NC2=CC(=O)c3sc(C)nc3C2=O)cc1 ?
93.4

Which residual activity reading was recorded for the compound Nc1ncnc2[nH]nc(Nc3ccc(F)cc3)c12 ?
80.5

Which residual activity reading was recorded for the compound N#CC(C#N)=C(N)/C(C#N)=C/c1ccc(O)cc1 ?
92.4

Which residual activity reading was recorded for the compound Oc1cccc(-c2nc(N3CCOCC3)c3oc4ncccc4c3n2)c1 ?
87.1

Which residual activity reading was recorded for the compound CC(=O)c1ccc(N2CCOCC2)cc1O ?
96.2

Which residual activity reading was recorded for the compound Cc1[nH]c(/C=C2\C(=O)Nc3ccc(S(=O)(=O)N(C)c4cccc(Cl)c4)cc32)c(C)c1C(=O)N1CCN(C)CC1 ?
76.1

Which residual activity reading was recorded for the compound O=C1NC(=O)C(c2cn(CCCn3ccnc3)c3ccccc23)=C1Nc1ccccc1 ?
96.7

Which residual activity reading was recorded for the compound CC[n+]1c(/C=C/N(C)c2ccccc2)n(-c2ccccc2)c2ccc(-c3nc4ccccc4s3)cc21 ?
105

Which residual activity reading was recorded for the compound CO[C@H]1CC2CC[C@@H](C)[C@@](O)(O2)C(=O)C(=O)N2CCCC[C@H]2C(=O)OC([C@H](C)C[C@@H]2CC[C@@H](O)[C@H](OC)C2)CC(=O)[C@H](C)/C=C(\C)[C@@H](O)[C@@H](OC)C(=O)[C@H](C)C[C@H](C)/C=C/C=C/C=C/1C (stereo partly specified) ?
102

Which residual activity reading was recorded for the compound CC(C)N(CCC(=O)c1ccc2ccccc2c1)Cc1ccccc1 ?
96.1

Which residual activity reading was recorded for the compound COc1cc2ncnc(Nc3cccc(Cl)c3)c2cc1OC ?
75.3

Which residual activity reading was recorded for the compound O=C1NC(=O)c2c1c1c3ccccc3n3c1c1c2c2ccccc2n1C1CCC3O1 ?
47.3

Which residual activity reading was recorded for the compound Nc1ccc2ncnc(NCCc3ccc(Oc4ccccc4)cc3)c2c1 ?
148

Which residual activity reading was recorded for the compound CCN(CC)CCNC(=O)c1c(C)[nH]c(/C=C2\C(=O)Nc3ccc(Cl)cc32)c1C ?
46.7

====

Measured residual activity of individual entries
# target-entity: MAP3K14 (human)
# assay-notes: radiometric filter-binding kinase assay, Kinase HotSpot
# measurement-setup: compound 0.5 µM; ATP 10 µM
Please reply with the bare figure in % and do not write the unit itself.

Consider the reported residual activity for these compounds:
- Cc1ccc(NC2=CC(=O)c3sc(C)nc3C2=O)cc1: 98.2
- N#C/C(=C(/N)Sc1ccc(N)cc1)c1ccccc1C(F)(F)F: 111

// next entry
What residual activity appears in the records for this compound with MAP3K14 (human)? CCN(CC)CCNC(=O)c1c(C)[nH]c(/C=C2\C(=O)Nc3ccc(F)cc32)c1C
127

====

Measured residual activity of individual entries
# target-entity: UniProt:P05771
# Sequence (P05771 whole entry, looked up): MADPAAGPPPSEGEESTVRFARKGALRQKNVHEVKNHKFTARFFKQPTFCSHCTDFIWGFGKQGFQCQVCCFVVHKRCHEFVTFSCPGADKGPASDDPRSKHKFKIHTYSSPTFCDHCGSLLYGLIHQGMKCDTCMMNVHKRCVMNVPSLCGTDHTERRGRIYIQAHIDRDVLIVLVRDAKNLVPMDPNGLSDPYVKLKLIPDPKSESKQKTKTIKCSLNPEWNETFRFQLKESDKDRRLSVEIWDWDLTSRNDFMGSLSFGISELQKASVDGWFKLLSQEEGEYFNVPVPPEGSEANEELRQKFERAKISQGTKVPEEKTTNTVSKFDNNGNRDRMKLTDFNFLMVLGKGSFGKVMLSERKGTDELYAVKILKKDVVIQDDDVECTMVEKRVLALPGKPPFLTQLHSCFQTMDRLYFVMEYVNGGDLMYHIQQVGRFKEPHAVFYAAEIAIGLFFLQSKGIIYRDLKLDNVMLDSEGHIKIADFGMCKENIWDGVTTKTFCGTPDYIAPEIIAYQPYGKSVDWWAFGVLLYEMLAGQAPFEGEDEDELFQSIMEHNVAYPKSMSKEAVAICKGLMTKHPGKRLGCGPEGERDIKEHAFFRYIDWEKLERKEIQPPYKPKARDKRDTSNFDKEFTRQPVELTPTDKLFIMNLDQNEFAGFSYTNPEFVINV
# assay-notes: radiometric filter-binding kinase assay, Kinase HotSpot
# measurement-setup: compound 0.5 µM; ATP 10 µM
Please reply with the bare figure in % and do not write the unit itself.

Consider the reported residual activity for these compounds:
* COc1ccc(COc2ccc(Cc3cnc(N)nc3N)cc2OC)cc1 | 102
* Cc1[nH]c(/C=C2\C(=O)Nc3ccc(S(=O)(=O)N(C)c4cccc(Cl)c4)cc32)c(C)c1C(=O)N1CCN(C)CC1 | 94
* Nc1ccc2ncnc(NCCc3ccc(Oc4ccccc4)cc3)c2c1 | 96.3
* CCN(CC)CCNC(=O)c1c(C)[nH]c(/C=C2\C(=O)Nc3ccc(Cl)cc32)c1C | 98.1
* CC(C)N(CCC(=O)c1ccc2ccccc2c1)Cc1ccccc1 | 92.6
* O=S(=O)(c1cccc2cnccc12)N1CCCNCC1 | 94.6
* N#C/C(=C(/N)Sc1ccc(N)cc1)c1ccccc1C(F)(F)F | 93.1
* N#CC(C#N)=C(N)/C(C#N)=C/c1ccc(O)cc1 | 114
* O=c1cc(N2CCOCC2)oc2c1ccc1ccccc12 | 93.4
* Cc1ccc(NC2=CC(=O)c3sc(C)nc3C2=O)cc1 | 95.7

// next entry
Which residual activity reading was recorded for the compound CC[n+]1c(/C=C/N(C)c2ccccc2)n(-c2ccccc2)c2ccc(-c3nc4ccccc4s3)cc21 ?
102

====

# target-entity: CDK5 CDK5R1 p25 (human) (UniProt Q00535+Q15078)
# Sequence (Q00535 whole entry, looked up): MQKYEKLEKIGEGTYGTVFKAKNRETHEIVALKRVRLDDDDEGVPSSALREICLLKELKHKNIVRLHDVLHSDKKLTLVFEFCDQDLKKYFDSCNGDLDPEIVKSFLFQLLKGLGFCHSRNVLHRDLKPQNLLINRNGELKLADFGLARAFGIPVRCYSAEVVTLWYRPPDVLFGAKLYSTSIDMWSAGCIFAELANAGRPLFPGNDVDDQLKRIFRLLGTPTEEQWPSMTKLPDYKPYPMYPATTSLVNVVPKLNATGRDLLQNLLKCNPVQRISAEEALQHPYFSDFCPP
# Sequence (Q15078 whole entry, looked up): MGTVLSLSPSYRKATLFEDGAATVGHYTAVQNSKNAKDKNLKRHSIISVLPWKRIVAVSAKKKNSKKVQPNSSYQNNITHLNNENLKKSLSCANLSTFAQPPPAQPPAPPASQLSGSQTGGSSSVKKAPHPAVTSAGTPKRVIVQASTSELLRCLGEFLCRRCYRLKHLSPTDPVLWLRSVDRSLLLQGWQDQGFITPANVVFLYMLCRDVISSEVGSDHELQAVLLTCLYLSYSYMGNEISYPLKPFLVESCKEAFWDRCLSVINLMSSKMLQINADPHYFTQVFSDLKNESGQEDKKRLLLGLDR
# assay-notes: radiometric filter-binding kinase assay, Kinase HotSpot
# measurement-setup: compound 0.5 µM; ATP 10 µM
measurement-label: residual activity

Consider the reported residual activity for these compounds:
* CC[n+]1c(/C=C/N(C)c2ccccc2)n(-c2ccccc2)c2ccc(-c3nc4ccccc4s3)cc21 | 103%
* Nc1ccc2ncnc(NCCc3ccc(Oc4ccccc4)cc3)c2c1 | 90.6%
* O=C1NC(=O)c2c1c1c3ccccc3n3c1c1c2c2ccccc2n1C1CCC3O1 | 28%

// next entry
What residual activity appears in the records for this compound with CDK5 CDK5R1 p25 (human) (UniProt Q00535+Q15078)? CNc1cc2c(Nc3cccc(Br)c3)ncnc2cn1
82.9%

====

# target-entity: UniProtKB Q12851
# Sequence (Q12851 whole entry, looked up): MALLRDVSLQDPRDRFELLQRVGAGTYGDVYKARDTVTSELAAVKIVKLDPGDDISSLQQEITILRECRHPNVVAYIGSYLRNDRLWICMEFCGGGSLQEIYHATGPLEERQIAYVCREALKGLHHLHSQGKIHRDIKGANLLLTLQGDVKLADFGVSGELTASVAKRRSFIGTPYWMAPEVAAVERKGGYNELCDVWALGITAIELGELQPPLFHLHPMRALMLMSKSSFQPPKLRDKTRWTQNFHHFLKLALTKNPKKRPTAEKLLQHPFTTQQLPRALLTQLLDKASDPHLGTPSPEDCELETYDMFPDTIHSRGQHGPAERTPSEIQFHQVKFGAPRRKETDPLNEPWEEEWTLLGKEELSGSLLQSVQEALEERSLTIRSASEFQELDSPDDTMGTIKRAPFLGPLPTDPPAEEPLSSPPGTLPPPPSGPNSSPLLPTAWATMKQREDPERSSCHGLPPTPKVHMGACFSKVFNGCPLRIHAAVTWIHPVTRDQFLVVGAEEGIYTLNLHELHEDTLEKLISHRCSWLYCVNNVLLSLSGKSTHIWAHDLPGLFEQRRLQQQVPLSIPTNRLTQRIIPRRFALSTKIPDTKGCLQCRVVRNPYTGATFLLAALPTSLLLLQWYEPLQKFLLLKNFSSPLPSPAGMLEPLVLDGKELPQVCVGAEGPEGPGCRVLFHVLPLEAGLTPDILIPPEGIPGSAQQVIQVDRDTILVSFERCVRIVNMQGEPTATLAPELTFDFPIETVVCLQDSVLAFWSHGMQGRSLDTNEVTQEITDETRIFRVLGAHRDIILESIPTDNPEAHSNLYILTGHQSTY
# assay-notes: radiometric filter-binding kinase assay, Kinase HotSpot
# measurement-setup: compound 0.5 µM; ATP 10 µM
measurement-label: residual activity (%)
Please reply with the bare figure in % and do not write the unit itself.

Which residual activity reading was recorded for the molecule c1ccc(-c2n[nH]c3c2oc2ccccc23)cc1 ?
61.8

Which residual activity reading was recorded for the molecule c1ccc(-c2n[nH]cc2-c2ccnc3ccccc23)nc1 ?
103

Which residual activity reading was recorded for the molecule CCC(=O)Nc1ccc2ncnc(Nc3cccc(Br)c3)c2c1 ?
90.5

Which residual activity reading was recorded for the molecule CNc1cc2c(Nc3cccc(Br)c3)ncnc2cn1 ?
74.8

Which residual activity reading was recorded for the molecule Cc1ccc(Nc2nccc(N(C)c3ccc4c(C)n(C)nc4c3)n2)cc1S(N)(=O)=O ?
72.5

Which residual activity reading was recorded for the molecule Nc1ncnc2c1c(-c1ccc(Oc3ccccc3)cc1)cn2C1CCCC1 ?
89.4

Which residual activity reading was recorded for the molecule O=C1Nc2ccc(Cl)cc2/C1=C/c1cc(Cl)c(O)c(Cl)c1 ?
62.6

Which residual activity reading was recorded for the molecule Nc1ccc2ncnc(NCCc3ccc(Oc4ccccc4)cc3)c2c1 ?
100

Which residual activity reading was recorded for the molecule Oc1cccc(-c2nc(N3CCOCC3)c3oc4ncccc4c3n2)c1 ?
93

Which residual activity reading was recorded for the molecule Nc1ncnc2[nH]nc(Nc3ccc(F)cc3)c12 ?
88.9

Which residual activity reading was recorded for the molecule CCN(CC)CCNC(=O)c1c(C)[nH]c(/C=C2\C(=O)Nc3ccc(Cl)cc32)c1C ?
8.07

src = the kinase profiling compilation of Christmann-Franck et al. (2016)
